- System: Streptococcus pneumoniae
- run.description: Antimicrobial activity against penicillin-resistant Streptococcus pneumoniae clinical isolates by broth microdilution method
- Assay type: functional

record.smiles: CC1(C)S[C@@H]2[C@H](NC(=O)Cc3ccccc3)C(=O)N2[C@H]1C(=O)O
MIC90 [µg/mL]: 4

---

- System: Streptococcus pyogenes
- run.description: Antimicrobial activity against erythromycin-susceptible Streptococcus pyogenes clinical isolates by broth microdilution method
- Assay type: functional
The entries below come with measured MIC90 values attached.
reported.property: MIC90 (µg/mL)

record.smiles: CN[C@H](CC(C)C)C(=O)N[C@H]1C(=O)N[C@@H](CC(N)=O)C(=O)N[C@H]2C(=O)N[C@H]3C(=O)N[C@H](C(=O)N[C@H](C(=O)O)c4cc(O)cc(O)c4-c4cc3ccc4O)[C@H](O[C@H]3C[C@](C)(N)[C@@H](O)[C@H](C)O3)c3ccc(c(Cl)c3)Oc3cc2cc(c3O[C@@H]2O[C@H](CO)[C@@H](O)[C@H](O)[C@H]2O[C@H]2C[C@](C)(NCc3ccc(-c4ccc(Cl)cc4)cc3)[C@@H](O)[C@H](C)O2)Oc2ccc(cc2Cl)[C@H]1O
cmp: =
endpoint.value: 0.25
--
record.smiles: CC1(C)S[C@@H]2[C@H](NC(=O)Cc3ccccc3)C(=O)N2[C@H]1C(=O)O
cmp: ≤
endpoint.value: 0.03
--
record.smiles: CCC[C@@H]1C[C@@H](C(=O)N[C@@H]([C@H]2O[C@H](SC)[C@H](O)[C@@H](O)[C@H]2O)[C@H](C)Cl)N(C)C1
cmp: =
endpoint.value: 0.06
--
record.smiles: CC[C@H]1OC(=O)[C@H](C)[C@@H](O[C@H]2C[C@@](C)(OC)[C@@H](O)[C@H](C)O2)[C@H](C)[C@@H](O[C@@H]2O[C@H](C)C[C@H](N(C)C)[C@H]2O)[C@](C)(O)C[C@@H](C)C(=O)[C@H](C)[C@@H](O)[C@]1(C)O
cmp: =
endpoint.value: 0.06
--
record.smiles: CN[C@H](CC(C)C)C(=O)N[C@H]1C(=O)N[C@@H](CC(N)=O)C(=O)N[C@H]2C(=O)N[C@H]3C(=O)N[C@H](C(=O)N[C@H](C(=O)O)c4cc(O)cc(O)c4-c4cc3ccc4O)[C@H](O)c3ccc(c(Cl)c3)Oc3cc2cc(c3O[C@@H]2O[C@H](CO)[C@@H](O)[C@H](O)[C@H]2O[C@H]2C[C@](C)(N)[C@H](O)[C@H](C)O2)Oc2ccc(cc2Cl)[C@H]1O
cmp: =
endpoint.value: 0.25
--
record.smiles: C[C@H]1COc2c(N3CCN(C)CC3)c(F)cc3c(=O)c(C(=O)O)cn1c23.C[C@H]1COc2c(N3CCN(C)CC3)c(F)cc3c(=O)c(C(=O)O)cn1c23.O
cmp: =
endpoint.value: 0.5
